Recorded cytotoxicity at 10 µM values for a group of compounds are listed next.
- assayName: Toxicity liver stage against HepG2, at 10uM
- Format: cell-based
- Set-up: test concentration 10 uM, cell line HepG2-A16-CD81EGFP
- conditionSet: human, HepG2-A16-CD81EGFP cells; read-out: INHIBITION
Respond numerically; units are % and should not be typed.

# compound, value
data = [
    ("COc1cccnc1NC(=O)COc1c(C)cccc1C", 0.819),
]

Could you share which cytotoxicity at 10 µM value was measured for CCCn1cc(S(=O)(=O)N(C)Cc2nonc2C)c(C)n1 ?
12.7

Input CNC(=O)CN1CCC12CCN(C(=O)Cc1ccccc1)C2 (stereo unspecified)
-75.4

For N[C@@H]1c2ccccc2C2(CCN(C(=O)c3ccc(=O)[nH]c3)CC2)[C@H]1O then?
3.27

Would you mind doing CCN(CCC(F)(F)F)S(=O)(=O)c1cccc(F)c1C#N as well?
-3.77

Similarly, COc1coc(CN2CCCC3(CCC(=O)N(C4CC4)C3)C2)cc1=O (stereo unspecified) ?
-39.9

----------
- assayName: Toxicity liver stage against HepG2, at 10uM
- Type: cell-based
- Parameters: test concentration 10 uM, cell line HepG2-A16-CD81EGFP
- conditionSet: human, HepG2-A16-CD81EGFP cells; read-out: INHIBITION
Values of cytotoxicity at 10 µM strictly less than -10% map to condition met, and values of at least -10% map to condition not met.

# compound, discreteLabel
records = [
    ("O=C(NCc1nnc2n1CCCCC2)N1CCC2(CCCCC2)C1", "condition met"),
    ("Cc1nc(CC(C)C)sc1C(=O)N1CCC1", "condition not met"),
    ("COCC(=O)N1CCCCC1c1ccnc(Nc2ncc(C)s2)n1 (configuration not stated)", "condition met"),
]

Does the reported cytotoxicity at 10 µM of the following compound sit strictly below -10%? Cc1cccc(-c2ncc(CNC(C)Cc3ncccc3C)cn2)c1 (configuration not stated)
condition met

Then what about the compound Fc1ccc(OCCCN2CCOC(Cn3cncn3)C2)cc1 (configuration not stated) ?
condition not met

Also, O=C(c1ccco1)N(c1ccc(F)cn1)C1CCOCC1 please.
condition met

Then what about the compound Cc1ccc(C2CCCCCN2CCNS(C)(=O)=O)o1 (configuration not stated) ?
condition not met

Now the same for Cc1nc(C)c(CNCC2CCCn3ccnc32)s1 (configuration not stated)
condition met

Queued: Cc1cnn(CCNCc2nccn2Cc2ccccc2)c1
condition not met

One more compound: CCCS(=O)(=O)NC(C)C(=O)NCc1ccc(N2CCN(C)CC2)nc1 (configuration not stated)
condition met

Now give it for CNS(=O)(=O)c1cccc(CNc2nccc(C(F)(F)F)n2)c1 too.
condition not met

What would you report for CCN(C)C1COC2(CCN(C(=O)c3ccc(Cl)cc3)CC2)C1 (configuration not stated) ?
condition not met

----------
- assayName: Toxicity liver stage against HepG2, at 10uM
- Type: cell-based
- Set-up: test concentration 10 uM, cell line HepG2-A16-CD81EGFP
- conditionSet: human, HepG2-A16-CD81EGFP cells; read-out: INHIBITION
Entries and their cytotoxicity at 10 µM
Express it in %; write the number only.

// below: answered compounds
# compound, observable, value
rows = [
    ("COc1ccc(CN(C)C2CCN(S(C)(=O)=O)CC2)c2cccnc12", "cytotoxicity at 10 µM", 98.9),
    ("CCc1nccn1C1CCCN(C(=O)c2ccc(-n3ccnc3)cc2)C1 (centres undefined)", "cytotoxicity at 10 µM", -10.8),
    ("Cc1cc(N(C)C)nc(N2CC(n3cccn3)C2)n1", "cytotoxicity at 10 µM", -3.24),
    ("O=S(=O)(NCCn1ccc(-c2cccs2)n1)C1CC1", "cytotoxicity at 10 µM", -0.297),
    ("CCC1CCCCN1C(=O)Cn1nc(-c2ccc(C)s2)cc(N)c1=O (centres undefined)", "cytotoxicity at 10 µM", 2.64),
]

Query (compound): O=C(c1cn(-c2ccccc2Cl)nn1)N1CCSCC1 ; field requested: cytotoxicity at 10 µM
8.24

Check CN1CC(=O)N(c2cccc(F)c2)CC12CCN(CC1CCOCC1)C2 (centres undefined) too.
0.887

Input CCc1nc(C(=O)N2CCN(C(=O)CCc3ccccc3)CC2)c[nH]1
5.92

----------
Entries and their measured cytotoxicity at 10 µM follow.
- assayName: Toxicity liver stage against HepG2, at 10uM
- Format: cell-based
- Design: test concentration 10 uM, cell line HepG2-A16-CD81EGFP
- conditionSet: human, HepG2-A16-CD81EGFP cells; read-out: INHIBITION

Recorded results for 5 molecules are shown here.
# molecule, value
records = [
    ("CCCn1nnnc1COC(=O)C1COc2ccccc2O1 (stereo unspecified)", "3.72%"),
    ("CCN(CC)C(=O)NC(C)c1ccc(Oc2cccnc2)c(F)c1 (stereo unspecified)", "17.4%"),
    ("CNC(=O)CN1CCCC1c1ccccc1Br (stereo unspecified)", "-2.22%"),
    ("O=c1oc(-c2ccc(F)cc2)nn1CN1CCN(C2CCCC2)CC1", "-1.78%"),
    ("Cc1ccoc1C(=O)N1CCC(n2cc(CO)nn2)CC1", "-1.52%"),
]

Now let's try a different one.
I am curious: what cytotoxicity at 10 µM value has been reported for CC(=O)Nc1cc(C(=O)N2CCOCC2c2ccc(C)o2)ccc1F (stereo unspecified) ?
-3.08%

----------
- assayName: Toxicity liver stage against HepG2, at 10uM
- Type: cell-based
- Parameters: test concentration 10 uM, cell line HepG2-A16-CD81EGFP
- conditionSet: human, HepG2-A16-CD81EGFP cells; read-out: INHIBITION
Listed molecules paired with reported cytotoxicity at 10 µM
Returns: string containing the numeric result and its unit.

# molecule, cytotoxicity at 10 µM
measured = [
    ("CN(C)CCn1ccnc1C1CCN(c2cc(N)nc(N)n2)CC1", "0.829%"),
]

Look at this molecule and give its reported cytotoxicity at 10 µM. CCCc1nnc2sc(CC3CN(Cc4ccccc4)CCO3)nn12 (configuration not stated)
5.3%

What about this molecule? CN1C[C@H]2CN(Cc3cccc(OC(F)(F)F)c3)CCN2C1=O
4.85%

Next molecule up: Cc1cc(CSCc2cc(C)on2)on1
6.42%

Ok, now O=C1CC(NCc2ccccn2)CN1CCc1ccc(F)cc1 (configuration not stated)
7.18%

Request: COc1ccc(C2=C(C)C(N3CCc4ccccc43)=NS2(=O)=O)cc1
-4.66%

Here is the next molecule: Cc1oc(-c2ccsc2)nc1CC(=O)NCC(C)(C)CN(C)C
-5.81%

Could you do the same for Cc1cc(NC(C)Cc2cccnc2)n2nccc2n1 (configuration not stated) , please?
3.01%

Try O=C(O)c1ccccc1CN1CCC(c2ccnc3ccnn23)CC1 next.
-37.8%

How about this molecule: Cc1ccc(C(=O)N2CCO[C@H]3[C@H](OCCN(C)C)CC[C@@H]32)o1
-145%

Do the same for CCC1c2ccsc2CCN1C(=O)NCc1ccccn1 (configuration not stated) please
-4.51%

Query COc1cc(Br)c(CNc2ccn(CCC(N)=O)n2)cc1OC next
-2.87%

----------
Reported cytotoxicity at 10 µM is given for each of the following compounds.
- assayName: Toxicity liver stage against HepG2, at 10uM
- Format: cell-based
- Set-up: test concentration 10 uM, cell line HepG2-A16-CD81EGFP
- conditionSet: human, HepG2-A16-CD81EGFP cells; read-out: INHIBITION
Numbers only here, please. The scale is %.

Solved entries:
# compound, unitLabel, cytotoxicity at 10 µM
data = [
    ("CCc1noc(C)c1C(=O)N1CCCC1c1c(C)nn(C)c1C (stereo not drawn)", "%", -6.97),
    ("CC(C)c1cccc(CSc2nnc(Cn3cncn3)o2)n1", "%", 13),
    ("CC(C)CN(C(=O)Nc1cccnc1)C1CC1", "%", -11.3),
    ("CN(Cc1ccco1)C(=O)C1CSCN1C(=O)C1CCC1 (stereo not drawn)", "%", -13.2),
]

What value of cytotoxicity at 10 µM has been recorded for this entry: CN(C)CCOc1ccc(CNC(=O)c2cccc3[nH]ncc23)cc1
7.99

Try CC1CCN(c2ccc(=O)n(CC(=O)NCCc3ccccc3)n2)CC1 next.
0.277

Ok, now CCC(c1ccc(F)cc1F)N1CCN(CCO)CC1 (stereo not drawn)
-4.34

----------
- assayName: Toxicity liver stage against HepG2, at 10uM
- Format: cell-based
- Design: test concentration 10 uM, cell line HepG2-A16-CD81EGFP
- conditionSet: human, HepG2-A16-CD81EGFP cells; read-out: INHIBITION
Listing of entries alongside the reported cytotoxicity at 10 µM.
// note: answer is a bare numeric in %

Please review the following examples before continuing.
# compound, cytotoxicity at 10 µM [%]
data = [
    ("O=c1[nH]cc(Nc2ccccc2)c(=O)[nH]1", 15.6),
    ("COc1ccc(-c2nonc2N)cc1", -7.97),
    ("O=C1CC2(CCCC2)CN1CCOc1ccc(F)cc1", 1.05),
]

// lookup cytotoxicity at 10 µM for CC(C)N(C)Cc1cn2c(n1)CN(C(=O)Cc1ccccc1)CC2
-135

Please give the result for Cc1nc2cc(C(=O)N(CCC#N)CC3CCCO3)ccc2[nH]1 (configuration not stated) too.
-0.58

Next compound: CSCC(C)CNC(=O)N1CCSC(C)(C)C1 (configuration not stated)
0.873
